Origin of the recorded values: patent US20100135997A1

Target: T1, HLA-A*0201 loaded with the Carcinoembryonic antigen (CEA)-derived … peptide (biotin on the C-terminal biotinylation tag)
T1 construct: Soluble, biotinylated, immobilised on a streptavidin chip
Experiment: Biacore SPR
ENDPOINT: koff

# input Specify koff for SEQ ID NO 90 (receptor, mutated soluble two domain ILT-2) MGHLPKPTLWAEPGSVITQGSPVTLRCQGGQETQEYRLYREKKTAPWITRIPQELVKKGQFPIPSITWEHAGRYRCYYGSDTAGRSESSDPLELVVTGVYIKPTLSAQPSPVVNSGGNVTLQCDSQVAFDGFILCKEGEDEHPQCLNSQPHARGSSRAIFSVGPVSPGRRWWYRCYAYDSNSPYEWSLPSDLLELLVL and stop.
# output ≤ 2 s⁻¹

# input Assign koff to the following record: SEQ ID NO 127 (receptor, mutated soluble two domain ILT-2) MHLPKPTLWAEPGSVITMDQPVTLRCQGGQETQEYRLYREKKTAPWITRIPQELVKKGQFPIPSITWEHAGRYRCYYGSDTSQWSASSDPLELVVTGVYIKPTLSAQPSPVVNSGGNVTLQCDSQVAFDGFILSKEGEDEHPQSLNSQPHARGSSRAIFSVGPVSPSRRWWYRCYAYDSNSPYEWSLPSDLLELDVDG
# output ≤ 2 s⁻¹

# input Retrieve koff measured for SEQ ID NO 104 (receptor, mutated soluble two domain ILT-2) MGHLPKPTLWAEPGSVITLGQPVTLRCQGGQETQEYRLYREKKTAPWITRIPQELVKKGQFPIPSITWEHAGRYRCYYGSDTAGRSESSDPLELVVTGIYLAPTLSAQPSPVVNSGGNVTLQCDSQVAFDGFILCKEGEDEHPQCLNSQPHARGSSRAIFSVGPVSPSRRWWYRCYAYDSNSPYEWSLPSDLLELLVL and print it.
# output ≤ 2 s⁻¹

# input Complete the entry with koff for SEQ ID NO 25 (receptor, mutated soluble two domain ILT-2) MHLPKPTLWAEPGSVITLQSPVTLRCQGGQETQQYRLYREKKTAPWITRIPQELVKKGQFPIPSITWEHAGRYRCYYGSDTRQWSASSDPLELVVTGVYIKPTLSAQPSPVVNSGGNVTLQCDSQVAFDGFILCKEGEDDHPQCLNSQPHARGSSRAIFSVGPVSPSRRWRYRCYAYVAWAPYEWSLPSDLLELDVDG
# output ≤ 2 s⁻¹

# input Fill in koff for record SEQ ID NO 58 (receptor, mutated soluble two domain ILT-2) MAGHLPKPTLWAEPGSVITMDQPVTLRCQGGQETQEYRLYREKKTAPWITRIPQELVKKGQFPIPSITWEHAGRYRCYYGSDTSQWSASSDPLELVVTGVYIKPTLSAQPSPVVNSGGNVTLQCDSQVAFDGFILCKEGEDEHPQCLNSQPHARGSSRAIFSVGPVSPSRRWWYRCYAYDSNSPYEWSQMSDLLELDVDG
# output ≤ 2 s⁻¹

# input Provide one value: measured koff of SEQ ID NO 17 (receptor, mutated soluble two domain ILT-2) MAQHLPKPTLWAEPGSVITMDQPVTLRCQGGQETQEYRLYREKKTAPWITRIPQELVKKGQFPIPSITWEHAGRYRCYYGSDTSQWSASSDPLELVVTGVYIKPTLSAQPSPVVNSGGNVTLQCDSQVAYDGFILCKEGEDEHPQCLNSQPHARGSSRAIFSVGPVSPSRRWWYRCYAYDSNSPYEWSLPSDLLELDVDG
# output ≤ 2 s⁻¹
